B1: F1*; the commonest letter at each place (parent)
chain: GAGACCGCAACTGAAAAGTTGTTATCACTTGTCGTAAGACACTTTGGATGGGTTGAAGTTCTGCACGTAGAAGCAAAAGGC

Variants of: B1
Experiment: fraction ligated after 30 min (ligated reads / total reads); higher = more ligase activity
Conditions: with F1*sub RNA substrate (template-directed ligation), 42 °C
Answer each item with its documented fraction ligated.
Just the number.

Give the measured fraction ligated of G31A A56T .
0.724

Give the measured fraction ligated of T25C A39T .
0.766

Give the measured fraction ligated of A41G G50T .
0.609

Give the measured fraction ligated of G31C C40G .
0.796

Give the measured fraction ligated of C26T G55T .
0.815

Give the measured fraction ligated of G47A T49A .
0.806

Give the measured fraction ligated of A24C T35A .
0.782

Give the measured fraction ligated of G34C T49A .
0.776

Give the measured fraction ligated of A39G C42A .
0.829

Give the measured fraction ligated of G55A A56T A57G .
0.143

Give the measured fraction ligated of A27C T44C .
0.788

Give the measured fraction ligated of A24C T43A .
0.625

Give the measured fraction ligated of G38T G46A .
0.801

Give the measured fraction ligated of T32A A56G .
0.808

Give the measured fraction ligated of G31A A39G .
0.795

Give the measured fraction ligated of C28G T30G .
0.788

Give the measured fraction ligated of C42A G50A .
0.345

Give the measured fraction ligated of C28T G47T .
0.3

Give the measured fraction ligated of A24G G50C .
0.257

Give the measured fraction ligated of T23G C28T .
0.782

Give the measured fraction ligated of A39G C40G .
0.802

Give the measured fraction ligated of C33A T45C .
0.53

Give the measured fraction ligated of A24T G46A .
0.553

Give the measured fraction ligated of A27C G38A .
0.807

Give the measured fraction ligated of T23A G38C .
0.799

Give the measured fraction ligated of A39T A56T .
0.807

Give the measured fraction ligated of T35G T44A .
0.843

Give the measured fraction ligated of A41T A56G .
0.778

Give the measured fraction ligated of G31A A41G .
0.797

Give the measured fraction ligated of T25A G55A .
0.263

Give the measured fraction ligated of A24C C42A .
0.779

Give the measured fraction ligated of G34A T43C .
0.779

Give the measured fraction ligated of T25C T35C .
0.771

Give the measured fraction ligated of T23G G34C .
0.799

Give the measured fraction ligated of G38C T44A .
0.845

Give the measured fraction ligated of T30G G46T .
0.785

Give the measured fraction ligated of G50T A56C .
0.0586

Give the measured fraction ligated of G47A A57T .
0.77

Give the measured fraction ligated of C26G G50T .
0.0691

Give the measured fraction ligated of T35G C42A .
0.846

Give the measured fraction ligated of T23G A27G .
0.788

Give the measured fraction ligated of T23G A56C .
0.794

Give the measured fraction ligated of T30G A36T .
0.841

Give the measured fraction ligated of G50A G55A .
0.178

Give the measured fraction ligated of A39G G55A .
0.844

Give the measured fraction ligated of T25G G46A .
0.266
